System: OVCAR-5 ovarian
Assay: NCI tumour cell line growth inhibition, 48 h
Observation Type: GI50

INSERT INTO measurements (molecule, reported_measurement) VALUES
  ('O=C(Oc1ccccc1)c1cc(O)c(O)c(O)c1', '25.2 µM'),
  ('CCCCCCN1C(=O)/C(=c2\sc3n(c2=O)C2C(NN=3)N(CC)C(=O)N2CC)c2ccccc21 (centres undefined)', '2.03 µM'),
  ('Cc1sc2ncnc(Sc3nc4ccccc4[nH]3)c2c1C', '39.7 µM'),
  ('O=C(O)C(/C=C/c1ccco1)=N\Nc1nc(-c2ccc(Cl)cc2)cs1', '46.4 µM');

These data points were gathered from PubChem BioAssay (NCI).
